test: Volume of distribution at steady state in mouse at 3 mg/kg, iv; type: ADME, organism-based; conditions: in vivo, read-out: Vdss
outcome_measure: Vd

GET /value?item= CC(=O)N1CCN(c2cc(-c3cc(C(F)(F)F)c4c(N)ncnn34)ccc2C#N)C(=O)C1(C)C &field=Vd returns 2.7 L/kg

---

experiment: Volume of distribution at steady state in monkey at 1 mg/kg, iv; format: ADME, organism-based, Macaca mulatta; conditions: rhesus monkey, in vivo, read-out: Vdss
outcome_measure: Vd

GET /value?item= CC(=O)N1CCN(c2cc(-c3cc(C(F)(F)F)c4c(N)ncnn34)ccc2C#N)C(=O)C1(C)C &field=Vd returns 3.6 L/kg

---

assay: Cmax in mouse at 6 mg/kg, po; assay type: ADME, organism-based; set-up: dose 6 mg/kg, route oral; conditions: in vivo
outcome_measure: Cmax (µM)
The reply should contain only the number, in µM.

GET /value?item= CC(=O)N1CCN(c2cc(-c3cc(C(F)(F)F)c4c(N)ncnn34)ccc2C#N)C(=O)C1(C)C &field=Cmax returns 5.9

---

experiment: Half life in human liver microsomes aat 0.5 uM preincubated for 6 mins followed by NADPH addition measured after 10 mins by LC-MS/MS analysis; format: ADME, microsome
Listed next: entries and their corresponding half-life at 0.5 µM.
The reply should contain only the number, in min.

CC(=O)N1CCN(c2cccc(-c3cc(-c4ccnn4CC(F)(F)F)c4c(N)ncnn34)c2)C(=O)C1(C)C: 57

GET /value?item= CC(=O)N1CCN(c2cccc(-c3cc(C(F)(F)F)c4c(N)ncnn34)c2)C(=O)C1(C)C &field=half-life at 0.5 µM returns 41

---

assay: Half life in mouse at 3 mg/kg, iv; assay type: ADME, organism-based; details: in vivo
outcome_measure: half-life (h)
The reply should contain only the number, in h.

GET /value?item= CC(=O)N1CCN(c2cc(-c3cc(C(F)(F)F)c4c(N)ncnn34)ccc2C#N)C(=O)C1(C)C &field=half-life returns 4.9

---

test: Metabolic stability in rat liver microsomes assessed as parent compound remaining at 0.5 uM preincubated for 6 mins followed by NADPH addition measured after 10 mins by LC-MS/MS analysis; format: ADME, microsome; conditions: read-out: Stability
Listed next: entries and their corresponding remaining at 10 min, 0.5 µM.
A complete answer gives the number followed by the unit.

CC(=O)N1C[C@H](C)N(c2cc(-c3cc(C(F)(F)F)c4c(N)ncnn34)ccc2C#N)C(=O)C1(C)C: 91%

Let us move to another entry and its remaining at 10 min, 0.5 µM.
GET /value?item= CC(=O)N1CCN(c2cccc(-c3cc(Cl)c4c(N)ncnn34)c2C)C(=O)C1(C)C &field=remaining at 10 min, 0.5 µM returns 19%

---

test: AUC (0 to 24 hrs) in Balb/c mouse at 30 mg/kg, po; format: ADME, organism-based; set-up: dose 30 mg/kg, time < 24 hr, route oral; details: in vivo
outcome_measure: AUC(0-t) at 24 h (µM·h)
The reply should contain only the number, in µM·h.

GET /value?item= CC(=O)N1CCN(c2cccc(-c3cc(Cl)c4c(N)ncnn34)c2)C(=O)C1(C)C &field=AUC(0-t) at 24 h returns 2.9

---

assay: Half life in monkey at 1 mg/kg, iv; format: ADME, organism-based, Macaca mulatta; settings: rhesus monkey, in vivo
outcome_measure: half-life (h)
The reply should contain only the number, in h.

GET /value?item= CC(=O)N1CCN(c2cc(-c3cc(C(F)(F)F)c4c(N)ncnn34)ccc2C#N)C(=O)C1(C)C &field=half-life returns 10

---

assay: Oral bioavailability in rat at 5 mg/kg; format: ADME, organism-based; conditions: in vivo
outcome_measure: bioavailability (%)
The reply should contain only the number, in %.

GET /value?item= CC(=O)N1CCN(c2cc(-c3cc(C(F)(F)F)c4c(N)ncnn34)ccc2C#N)C(=O)C1(C)C &field=bioavailability returns 71

---

experiment: Clearance in monkey at 1 mg/kg, iv; type: ADME, organism-based, Macaca mulatta; conditions: rhesus monkey, in vivo
outcome_measure: clearance (mL/min/kg)
The reply should contain only the number, in mL/min/kg.

GET /value?item= CC(=O)N1CCN(c2cc(-c3cc(C(F)(F)F)c4c(N)ncnn34)ccc2C#N)C(=O)C1(C)C &field=clearance returns 4.6

---

assay: Half life in rat liver microsomes aat 0.5 uM preincubated for 6 mins followed by NADPH addition measured after 10 mins by LC-MS/MS analysis; type: ADME, microsome
outcome_measure: half-life at 0.5 µM (min)
The reply should contain only the number, in min.

Recorded half-life at 0.5 µM, per entry:
CC(=O)N1CCN(c2cccc(-c3cc(-c4ccnn4CC(F)(F)F)c4c(N)ncnn34)c2)C(=O)C1(C)C: 31
CC(=O)N1CCN(c2cccc(-c3cc(C(F)(F)F)c4c(N)ncnn34)c2)C(=O)C1(C)C: 14
CC(=O)N1CCN(c2cccc(-c3cc(Cl)c4c(N)ncnn34)c2)C(=O)C1(C)C: 16

Let us move to another entry and its half-life at 0.5 µM.
GET /value?item= CC(=O)N1CCN(c2cc(-c3cc(C(F)(F)F)c4c(N)ncnn34)ccc2C#N)C(=O)C1(C)C &field=half-life at 0.5 µM returns 67

---

experiment: Volume of distribution at steady state in rat at 2 mg/kg, iv; assay type: ADME, organism-based; settings: in vivo, read-out: Vdss
outcome_measure: Vd (L/kg)
The reply should contain only the number, in L/kg.

GET /value?item= CC(=O)N1CCN(c2cc(-c3cc(C(F)(F)F)c4c(N)ncnn34)ccc2C#N)C(=O)C1(C)C &field=Vd returns 0.5

---

assay: AUC in mouse at 6 mg/kg, po; format: ADME, organism-based; conditions: in vivo
outcome_measure: AUC (µM·h)
The reply should contain only the number, in µM·h.

GET /value?item= CC(=O)N1CCN(c2cc(-c3cc(C(F)(F)F)c4c(N)ncnn34)ccc2C#N)C(=O)C1(C)C &field=AUC returns 12

---

system: Plasma; assay: Drug uptake in New Zealand White rabbit plasma at 10 mg/kg, iv administered as 10 mins infusion measured up to 30 mins post dose; type: ADME, organism-based, Oryctolagus cuniculus; settings: in vivo
outcome_measure: concentration (µM)
The reply should contain only the number, in µM.

Note to self: concentration of CC(=O)N1CCN(c2cc(-c3cc(C(F)(F)F)c4c(N)ncnn34)ccc2C#N)C(=O)C1(C)C with Plasma was 27

---

assay: Metabolic stability in mouse liver microsomes assessed as parent compound remaining at 0.5 uM preincubated for 6 mins followed by NADPH addition measured after 10 mins by LC-MS/MS analysis; type: ADME, microsome; settings: read-out: Stability
outcome_measure: remaining at 10 min, 0.5 µM (%)
The reply should contain only the number, in %.

CC(=O)N1CCN(c2cc(-c3cc(Cl)c4c(N)ncnn34)ccc2C#N)C(=O)C1(C)C: 89
CC(=O)N1C[C@H](C)N(c2cc(-c3cc(C(F)(F)F)c4c(N)ncnn34)ccc2C#N)C(=O)C1(C)C: 100
CC(=O)N1C[C@@H](C)N(c2cc(-c3cc(C(F)(F)F)c4c(N)ncnn34)ccc2C#N)C(=O)C1(C)C: 23
CC(=O)N1CCN(c2cccc(-c3cc(Cl)c4c(N)ncnn34)c2)C(=O)C1(C)C: 17

Let us move to another entry and its remaining at 10 min, 0.5 µM.
GET /value?item= CC(=O)N1CCN(c2cc(-c3cc(Cl)c4c(N)ncnn34)ccc2S(C)(=O)=O)C(=O)C1(C)C &field=remaining at 10 min, 0.5 µM returns 84

---

assay: Clearance in rat at 2 mg/kg, iv; format: ADME, organism-based; conditions: in vivo
outcome_measure: clearance (mL/min/kg)
The reply should contain only the number, in mL/min/kg.

GET /value?item= CC(=O)N1CCN(c2cc(-c3cc(C(F)(F)F)c4c(N)ncnn34)ccc2C#N)C(=O)C1(C)C &field=clearance returns 2.3

---

test: Metabolic stability in human liver microsomes assessed as parent compound remaining at 0.5 uM preincubated for 6 mins followed by NADPH addition measured after 10 mins by LC-MS/MS analysis; type: ADME, microsome; details: read-out: Stability
Listed next: entries and their corresponding remaining at 10 min, 0.5 µM.
The reply should contain only the number, in %.

Recorded remaining at 10 min, 0.5 µM, per entry:
CC(=O)N1CCN(c2cc(-c3cc(Cl)c4c(N)ncnn34)ccc2Cl)C(=O)C1(C)C: 85
COc1ccc(-c2cc(C(F)(F)F)c3c(N)ncnn23)cc1N1CCN(C(C)=O)C(C)(C)C1=O: 95
CC(=O)N1CCN(c2cc(-c3cc(Cl)c4c(N)ncnn34)ccc2C(F)(F)F)C(=O)C1(C)C: 95
CC(=O)N1CCN(c2cc(-c3cc(Cl)c4c(N)ncnn34)ccc2S(C)(=O)=O)C(=O)C1(C)C: 100
CC(=O)N1CCN(c2cc(-c3cc(C(F)(F)F)c4c(N)ncnn34)ccc2C#N)C(=O)C1(C)C: 94

GET /value?item= CC(=O)N1CCN(c2cc(C)cc(-c3cc(Cl)c4c(N)ncnn34)c2)C(=O)C1(C)C &field=remaining at 10 min, 0.5 µM returns 92

GET /value?item= CC(=O)N1C[C@H](C)N(c2cc(-c3cc(C(F)(F)F)c4c(N)ncnn34)ccc2C#N)C(=O)C1(C)C &field=remaining at 10 min, 0.5 µM returns 89

GET /value?item= CC(=O)N1CCN(c2cc(-c3cc(Cl)c4c(N)ncnn34)ccc2C#N)C(=O)C1(C)C &field=remaining at 10 min, 0.5 µM returns 90

GET /value?item= CC(=O)N1C[C@@H](C)N(c2cc(-c3cc(Cl)c4c(N)ncnn34)ccc2C#N)C(=O)C1(C)C &field=remaining at 10 min, 0.5 µM returns 82

GET /value?item= CC(=O)N1CCN(c2cccc(-c3cc(-c4ccnn4C4CCOCC4)c4c(N)ncnn34)c2)C(=O)C1(C)C &field=remaining at 10 min, 0.5 µM returns 77
